system: Gaeumannomyces graminis var. tritici (Ggt); assay: In vitro Assay: mycelial growth of Ggt on minimal media agar plates containing test compound; assay type: cell-based; conditions: Gaeumannomyces graminis; 0.1 ppm in minimal media agar; dark, 19-20° C., 4 to 5 days; diameter of mycelial growth; read-out: In vitro (ppm) 0.1, Percent Inhibition
quantity-name: inhibition at 0.1 ppm

Guide cases for inhibition at 0.1 ppm, answers given:
CCN(CC)C(=S)c1cccc(F)c1[Si](C)(C)C [Example 74]
7%
C[Si](C)(C)c1cccc(Cl)c1C(=O)NCCCl [Example 29]
100%
CCNC(=O)c1c([Si](C)(C)C)ccc(-c2ccccc2)c1Cl [Example 242]
27%
CCNC(=O)c1c(Cl)ccc(Br)c1[Si](C)(C)C [Example 232]
92%

Next, consider the following compound.
Any idea what its inhibition at 0.1 ppm is? The compound is CC(C)NC(=O)c1c(F)cccc1[S+]([O-])C(C)(C)C (stereo not drawn) [Example 196]
3%
